The measurements presented in this section are drawn from the supplement of paper PMC12783771.

B1: library; numbered along this chain (parent)
chain: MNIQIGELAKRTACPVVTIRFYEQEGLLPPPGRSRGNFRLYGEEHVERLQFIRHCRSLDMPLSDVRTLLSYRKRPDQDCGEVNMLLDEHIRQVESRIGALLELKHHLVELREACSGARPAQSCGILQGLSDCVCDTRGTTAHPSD

Variants of: B1
experiment_description: sfGFP reporter fluorescence (15 h) (µM FITC); higher = higher leak
experimental_context: library round: Round 0; ligand: none
# if value of sfGFP reporter fluorescence reaches 0.06, tag true (1); if it stays below, tag false (0)

sequence_input: MNIQIGELAKRTACPVVTIRFYEQEGLLPPPGRSRGNFRLYGEEHVERLQFIRHCRSLDLNLSKVRTLLSYRKRPDQDCGEVNMLLDEHIRQVESRIGALLELKHHLVELREACSGARPAQSCGILQILSDCVCDTRGTTAHPSD
label_value: true (1)

sequence_input: MNIQIGELAKRTACPVVTIRFYEQEGLLPPPGRSRGNFRLYGEEHVERLQFIRHCRSLDMPLSDVRTLLSYRKRPDQDCGEVNMLLDEFIRQVESRIGALLELKHHLVELREACSGARPAQSCGILQGLSDCVCDTRGTTAHPSD
label_value: false (0)

sequence_input: MNIQIGELAKRTACPVVTIRFYEQEGLLPPPGRSRGNFRLYGEEHVERLQFIRHCRSLDMPLSDVRTLLSYRKRPDQDCGEVNMLLDEHIRQVESRIGALLELKHHLVELREACSGARPAQSWGILQGLSDCVCDTRGTTAHPSD
label_value: false (0)

sequence_input: MNIQIGELAKRTACPVVTIRFYEQEGLLPPPGRSRGNFRLYGEEHVERLQFIRHCRSLDMPLSDVRTLLSYRKRPDQDLGEVNMLLDEHIRQVESRIGALLELKHHLVELREACSGARPAQSCGILQGLSDCVCDTRGTTAHPSD
label_value: false (0)

For this variant, is measured sfGFP reporter fluorescence 0.06 or higher? MNIQIGELAKRTACPVVTIRFYEQEGLLPPPGRSRGNFRLYGEEHVERLQFIRHCRSLDMPLSDVRTLLSYRKRPDQDCGEVNMFLDEHIRQVESRIGALLELKHHLVELREACSGARPAQSCGILQGLSDCVCDTRGTTAHPSD
false (0)

Exam item: decide whether the reported sfGFP reporter fluorescence for MNIQIGELAKRTACPVVTIRFYEQEGLLPPPGRSRGNFRLYGEEHVERLQFIRHCRSLDMPLSDVRTLLSYRKRADQDCGEVNMLLDEHIRQVESRIGALLELKHHLVELREACSGARPAQSCGILQGLSDCVCDTRGTTAHPSD is at least 0.06.
true (1)

Is it the case that MNIQIGELAKRTACPVVTIRFYEQEGLLPPPGRSRGNFRLYGEEHVERLQFIRHCRSLDLNLSDVRTLLSYRKRPDQDCGEVNMLLDEHIRQVESRIGALLELVHHLVELREACSGARPAQSCGILQGLSDCVCDTRGTTAHPSD has sfGFP reporter fluorescence reaching or exceeding 0.06?
true (1)

Quick check, sfGFP reporter fluorescence >= 0.06? MNIQIGELAKRTACPVVTIRFPEQEGLLPPPGRSRGNFRLYGEEHVERLQFIRHCRSLDMPLSDVRTLLSYRKRPDQDCGEVNMLLDEHIRQVESRIGALLELKHHLVELREACSGARPAQSCGILQGLSDCVCDTRGTTAHPSD
true (1)

Given the entry MNIQIGELAKRTACPVVTIRFYEQEGLLPPPGRSRGNFRLYGEEHVERLQFIRHCRSLDMNLSDVRTLLSYRKRPDQDCGEVNMLLDEHIRQVESRIGALLELVHHCVELREACSGARPAQSCGILQILSDCVCDTRGTTAHPSD , answer whether its sfGFP reporter fluorescence meets or surpasses 0.06.
true (1)

Does the reported sfGFP reporter fluorescence for MNIQIGELAKRTACPVVTIRFYEQEGLLPPPGRSRGNFRLYGEEHVERLQFIRHCRSLDMPLSDVRTLLSYRKRPDQDCGEFNMLLDEHIRQVESRIGALLELKHHLVELREACSGARPAQSCGILQGLSDCVCDTRGTTAHPSD fall at or above the 0.06 mark?
false (0)

# bool: sfGFP reporter fluorescence of MNIQIGELAKRTAAPVVTIRFYEQEGLLPPPGRSRGNFRLYGEEHVERLQFIRHCRSLDMPLSDVRTLLSYRKRPDQDCGEVNMLLDEHIRQVESRIGALLELKHHLVELREACSGARPAQSCGILQGLSDCVCDTRGTTAHPSD >= 0.06
true (1)

Determine whether measured sfGFP reporter fluorescence meets or exceeds 0.06 for MNIQIGELAKRTACPVVTIRFYEQEGLQPPPGRSRGNFRLYGEEHVERLQFIRHCRSLDMPLSDVRTLLSYRKRPDQDCGEVNMLLDEHIRQVESRIGALLELKHHLVELREACSGARPAQSCGILQGLSDCVCDTRGTTAHPSD
true (1)

Has MNIQIGELAKRTACPVVTIRFYEQEGLLPWPGRSRGNFRLYGEEHVERLQFIRHCRSLDMPLSDVRTLLSYRKRPDQDCGEVNMLLDEHIRQVESRIGALLELKHHLVELREACSGARPAQSCGILQGLSDCVCDTRGTTAHPSD a recorded sfGFP reporter fluorescence greater than or equal to 0.06?
true (1)

State whether the measured sfGFP reporter fluorescence reaches 0.06, counting equality as reaching it, for MNIQIGELAKRTACPVVTIRFYEQEGLLPPPGRSRCNFRLYGEEHVERLQFIRHCRSLDMPLSDVRTLLSYRKRPDQDCGEVNMLLDEHIRQVESRIGALLELKHHLVELREACSGARPAQSCGILQGLSDCVCDTRGTTAHPSD
true (1)
